Target: HSP90a protein (Homo sapiens)
Construct: purchased BPS Bioscience 50298
Assay: HSP90α-binding fluorescent polarization (FP) assay, FITC-geldanamycin probe
Conditions: FP competition with FITC-geldanamycin, 5 nM, 120 min at 25° C.
This listing pairs compounds with measured IC50.

>>> measured("CCC(=O)N1CCN(c2nc(OC[C@@H]3CCN3C(=O)C3CCN(Cc4ccc(-n5c(O)nnc5-c5cc(C(C)C)c(O)cc5O)cc4)CC3)nc3c2CCN(c2cccc4cccc(Cl)c24)C3)C[C@@H]1CC#N [Compound 152, trifluoroacetic acid]")
"< 100 nM"
>>> measured("C=C(F)C(=O)N1CCN(c2nc(OC[C@@H]3CCN(C(=O)C4CCN(Cc5ccc(-n6c(O)nnc6-c6cc(CC)c(O)cc6O)cc5)CC4)C3)nc3c2CCN(c2cccc4cccc(Cl)c24)C3)C[C@@H]1CC#N [Compound 167]")
"< 100 nM"
>>> measured("CCC(=O)N1CCN(c2nc(OCCC(=O)NCCc3ccc(CN4CCC(Cc5ccc(-n6c(C(=O)NCC(F)(F)F)nnc6-c6cc(C(C)C)c(O)cc6O)cc5)CC4)cc3)nc3c2CCN(c2cc(O)cc4ccccc24)C3)CC1 [Compound 151]")
"100 to 1000 nM"
>>> measured("C=C(F)C(=O)N1CCN(c2nc(OC[C@@H]3CCN(C(=O)C4CCN(Cc5ccc(-n6c(C(=O)NCC(F)(F)F)nnc6-c6cc(C(C)C)c(O)cc6O)cc5)CC4)C3)nc3c2CCN(c2cccc4cccc(Cl)c24)C3)C[C@@H]1CC#N [Compound 168]")
"100 to 1000 nM"
>>> measured("C=CC(=O)N1CCN(c2nc(OC[C@@H]3CCCN3C(=O)C3CCN(Cc4ccc(-n5c(O)nnc5-c5cc(C(C)C)c(O)cc5O)cc4)CC3)nc3c2CCN(c2cccc4cccc(Cl)c24)C3)C[C@@H]1CC#N [Compound 139]")
"100 to 1000 nM"

Entry CC(C)c1cc(-c2nnc(O)n2-c2ccc(CN3CCN(C4CCN(c5nc6c(c(N7CCN(C(=O)C(F)(F)F)[C@@H](CC#N)C7)n5)CCN(c5cccc7cccc(Cl)c57)C6)CC4)CC3)cc2)c(O)cc1O [Compound 136] needs its IC50 filled in; supply it.
> 1000 nM

Read off the recorded IC50 for C=CC(=O)N1CCN(c2nc(OC[C@@H]3CCN(C(=O)c4ccc5c(c4)CN(C(=O)c4cc(C(C)C)c(OC)cc4O)C5)C3)nc3c2CCN(c2cccc4cccc(Cl)c24)C3)C[C@@H]1CC#N [Compound 173]
> 1000 nM

Provide one value: measured IC50 of CCC(=O)N1CCN(c2nc(OC[C@@H]3CCCN3C(=O)C3CCN(Cc4ccc(-n5c(O)nnc5-c5cc(C(C)C)c(O)cc5O)cc4)CC3)nc3c2CCN(c2cccc4cccc(Cl)c24)C3)C[C@@H]1CC#N [Compound 140]
100 to 1000 nM

Give a short answer stating reported IC50 for C=C(F)C(=O)N1CCN(c2nc(N3CCC(CN4CCC(Cc5ccc(-n6c(O)nnc6-c6cc(C(C)C)c(O)cc6O)cc5)CC4)CC3)nc3c2CCN(c2cccc4cccc(Cl)c24)C3)C[C@@H]1CC#N [Compound 137, acetic acid] .
100 to 1000 nM

Identify measured IC50 associated with C=C(F)C(=O)N1CCN(c2nc(OC[C@@H]3CCN(C(=O)C4CCN(Cc5ccc(-n6c(C(N)=O)nnc6-c6cc(C(C)C)c(O)cc6O)cc5)CC4)C3)nc3c2CCN(c2cccc4cccc(Cl)c24)C3)C[C@@H]1CC#N [Compound 166]
100 to 1000 nM

Query IC50 for C=C(F)C(=O)N1CCN(c2nc(OC[C@@H]3CCN(C(=O)C4CCN(Cc5ccc(-n6c(O)nnc6-c6cc(C(C)C)c(O)cc6O)cc5)CC4)C3)nc3c2CCN(c2cccc4cccc(Cl)c24)C3)C[C@@H]1CC#N [Compound 145, acetic acid]
100 to 1000 nM

Consider the compound CCC(=O)N1CCN(c2nc(OCC3CN(C(=O)C4CCN(Cc5ccc(-n6c(O)nnc6-c6cc(C(C)C)c(O)cc6O)cc5)CC4)C3)nc3c2CCN(c2cccc4cccc(Cl)c24)C3)C[C@@H]1CC#N [Compound 146] and give its recorded IC50.
100 to 1000 nM

Identify measured IC50 associated with CCC(=O)N1CCN(c2nc(OC[C@@H]3CCN(C(=O)C4CCN(Cc5ccc(-n6c(O)nnc6-c6cc(C(C)C)c(O)cc6O)cc5)CC4)C3)nc3c2CCN(c2cccc4cccc(Cl)c24)C3)C[C@@H]1CC#N [Compound 141]
100 to 1000 nM
